The reported measurements were obtained from PubChem BioAssay (NCI).

experiment: NCI Yeast Anticancer Drug Screen. Data for the mlh1 rad18 strain (AID 175); settings: S. cerevisiae mlh1 rad18 strain growth inhibition; at 50.0 µM (retest, dose inferred, filed as 5.0); stronger effect = higher value
About 79,000 compounds went through this panel and 15% of them were active in at least one assay; those are over-represented in the sample as a whole.
Listed here: items and their measured growth inhibition.

{"columns": ["COMPOUND", "UNITS_OF_MEASURE", "growth inhibition"],
 "data": [
  ["CC(=O)[O-].CC(=O)[O-].O=C(N/N=C/c1cc(Cl)cc(Cl)c1[OH2+])c1ccncc1.[Mn+2]", "%", 95],
  ["COC(=O)CC1(C(=O)O)CC2(Cl)C(Cl)=C(Cl)C1(Cl)C2(Cl)Cl (stereo unspecified)", "%", 57],
  ["Oc1ccc2nc3ccccc3nc2c1", "%", 82],
  ["O=C(NNC(=O)OCC(Cl)(Cl)Cl)OCC(Cl)(Cl)Cl", "%", 3],
  ["CC1=C(N2CC2)C(=O)c2ccccc2C1=O", "%", 65],
  ["c1ccc(NC2=NCCN2)nc1", "%", 98]
]}

###

Overview of reported growth inhibition across a group of compounds:
test: NCI Yeast Anticancer Drug Screen. Data for the mlh1 rad18 strain (AID 175); settings: S. cerevisiae mlh1 rad18 strain growth inhibition; at 5.0 µM (retest, dose inferred, filed as 0.5); stronger effect = higher value
This is part of a sample that, as a whole, favours compounds with a hit. Of some 79,000 tested, about 15% had one in any assay.
METRIC: growth inhibition (%)

{"columns": ["COMPOUND", "METRIC", "VALUE_REPORTED"],
 "data": [
  ["Cc1cc[n+](C2=C(Nc3cc(C)cc(C)c3)C(=O)c3ccccc3C2=O)cc1", "growth inhibition", -3],
  ["Nc1nc(N)c2c(Cl)c(CNc3ccc(C(=O)NC(CC(=O)O)C(=O)O)cc3)ccc2n1 (stereo unspecified)", "growth inhibition", 12],
  ["O=C(O)C(O)(c1ccccc1)C1(O)CCCCC1 (stereo unspecified)", "growth inhibition", -114],
  ["O=[N+]([O-])/C=C/c1cc2c(cc1Br)OCO2", "growth inhibition", 68],
  ["CCc1cccc(C(C)C)c1NC1=C([n+]2ccc(C)cc2)C(=O)c2ccccc2C1=O", "growth inhibition", -4],
  ["[Br][Cd][Br].c1ccc([PH+](c2ccccc2)c2ccccc2)cc1.c1ccc([PH+](c2ccccc2)c2ccccc2)cc1", "growth inhibition", 18],
  ["CN(CCC(N)CC(=O)NC1C=CC(n2ccc(N)nc2=O)OC1C(=O)O)C(=N)N (stereo unspecified)", "growth inhibition", 72],
  ["OC1CCCC[CH]1[Hg][Cl] (stereo unspecified)", "growth inhibition", 100],
  ["CC(CCS(C)(=O)=O)([N+](=O)[O-])[N+](=O)[O-]", "growth inhibition", 24],
  ["O=C(O)/C=C\\c1c[nH]c2ccccc12", "growth inhibition", -17],
  ["O=C(OCc1ccccc1)C(C(Cl)c1ccccc1)N(Cc1ccccc1)Cc1ccccc1 (stereo unspecified)", "growth inhibition", -1],
  ["Nc1nc(N)c(-c2ccc(Cl)c(Cl)c2)c(CCc2ccc(CNC(=O)Nc3ccc(S(=O)(=O)F)cc3)cc2)n1", "growth inhibition", 4],
  ["O=C(Nc1cc(Cl)ccc1Cl)C(Cl)(Cl)Cl", "growth inhibition", -1],
  ["FC(F)(F)c1nc2ccc(SSc3ccc4nc(C(F)(F)F)[nH]c4c3)cc2[nH]1", "growth inhibition", 2],
  ["CCC[CH2][Sn]1([CH2]CCC)[O]CC(c2ccccn2)C[O]1", "growth inhibition", 44],
  ["NC1=C(c2nc(-c3ccccc3)cs2)C(c2ccc(Br)cc2)c2c(c3ccccc3oc2=O)O1 (stereo unspecified)", "growth inhibition", 6],
  ["CCC[CH2][Sn]([CH2]CCC)([CH2]CCC)[O]C(=O)C[N+](C)(C)c1cc[c]([Hg][c]2ccc(N(C)C)cc2)cc1", "growth inhibition", 99],
  ["CCCCN(CCCC)CC(C(C)=O)C(c1ccccc1)c1c(O)c2ccccc2oc1=O (stereo unspecified)", "growth inhibition", 22],
  ["CCc1ccc([O-])c(C=NCCCN(C)CCCN=Cc2cc(C)ccc2[O-])c1.[Co+3].[N-]=[N+]=[N-]", "growth inhibition", -4],
  ["N#CC(Nc1c(N)nc(-c2ccccc2)nc1N)c1ccc(N(CCCl)CCCl)cc1 (stereo unspecified)", "growth inhibition", 27],
  ["Cc1ccc(C#CCN2CCCCC2)cn1", "growth inhibition", -138],
  ["C[C@]12CCC3[C@@H](CC[C@@H]4c5nonc5CC[C@]34C)C1CCC2=O (stereo partly specified)", "growth inhibition", 37],
  ["O=C(O)CCCOc1cc(Cl)c(Cl)cc1Cl", "growth inhibition", 42],
  ["[I][Hg][I].c1ccc(N=P(c2ccccc2)(c2ccccc2)c2ccccc2)cc1", "growth inhibition", 99],
  ["CC12CCC(C1)C(C)(C)C2OC(=O)c1ccccc1N (stereo unspecified)", "growth inhibition", 14],
  ["CC(=O)OC1C(O)C(C)OC(OC2C(OC(=O)C3CCC4C(C3)OC3(CC(OC(=O)/C=C/c5ccccc5)C(C)CO3)C43CO3)OC(C)C(O)C2OC(C)=O)C1O (stereo unspecified)", "growth inhibition", -1],
  ["N.N.N.N.N.N#N.[Cl-].[Os+7]", "growth inhibition", 31],
  ["ClCCN(CCCl)B(N(CCCl)CCCl)N(CCCl)CCCl", "growth inhibition", -13],
  ["c1ccc(C(C(=Nc2ccc(Cc3ccc(N=C(C(c4ccccc4)c4ccccc4)N4CC4)cc3)cc2)N2CC2)c2ccccc2)cc1", "growth inhibition", 11],
  ["CCCN1CN(c2ccccc2)C2(CCN(CCCC(=O)c3ccc(F)cc3)CC2)C1=O", "growth inhibition", 22],
  ["CN(C)CCC(C(=O)C(Br)Br)(c1ccccc1)c1ccccc1", "growth inhibition", 33],
  ["Cc1ccc([PH+](c2ccc(C)cc2)c2ccc(C)cc2)cc1.Cc1ccc([PH+](c2ccc(C)cc2)c2ccc(C)cc2)cc1.[Cl][Hg][Cl]", "growth inhibition", 99],
  ["CCOP(=S)(OCC)SC(O)(C(F)F)C(F)F", "growth inhibition", 0],
  ["CC1CN=C(Nc2ccccc2)S1 (stereo unspecified)", "growth inhibition", 100],
  ["CCCCN1C(=O)C2C(C1=O)C1(Cl)C(Cl)=C(Cl)C2(Cl)C1(Cl)Cl (stereo unspecified)", "growth inhibition", 21],
  ["O=[N+]([O-])[O][Tl]([c]1ccccc1)[c]1ccccc1", "growth inhibition", -3],
  ["O=c1oc2ccccc2c(O)c1C(c1ccc2ccccc2c1)c1c(O)c2ccccc2oc1=O", "growth inhibition", 12],
  ["c1cc2c(cc1NC1=NCCO1)CCCC2", "growth inhibition", 15],
  ["N#C[S-].[Ce+3].c1ccc(-c2ccccn2)nc1.c1ccc(-c2ccccn2)nc1.c1ccc(-c2ccccn2)nc1", "growth inhibition", 63],
  ["CCCCCCC1CC2(Cl)C(Cl)=C(Cl)C1(Cl)C2(Cl)Cl (stereo unspecified)", "growth inhibition", 54],
  ["CCC/C=[CH]/[Hg][Cl]", "growth inhibition", 100]
]}
